Data origin: ChEMBL document CHEMBL1687903

Catalogue of molecules with associated log10 IC50
# System: Vero
# Measurement Notes: Cytotoxicity against african green monkey Vero cells by green fluorescent protein microplate assay
# Type: cell-based
# Experimental Parameters: Chlorocebus sabaeus
Values reflect log10 of reported IC50 (µM).

Example entries and their recorded answers appear below.
# Molecule, log10 IC50
rows = [
    ("O=Cc1cc(O)c2[nH]c3ccccc3c2c1", 2.02),
    ("CC(C)=CCc1c(O)c(C=O)cc2c1[nH]c1ccccc12", 1.97),
    ("C=CC(C)(C)c1c2c(c(O)c3ccc(=O)oc13)C=CC(C)(C)O2", 1.75),
    ("Cc1c2ccncc2c(C)c2c1[nH]c1ccccc12", 0.58),
    ("COc1ccc2c(c1)[nH]c1cc(OC)c(C(=O)O)cc12", 2.25),
]

Find the recorded log10 IC50 belonging to "O=Cc1cc2c(cc1O)[nH]c1cc(O)ccc12" and report it.
1.81

Find the recorded log10 IC50 belonging to "COc1ccc2c(c1)[nH]c1c(O)cc(C=O)cc12" and report it.
2.26

Find the recorded log10 IC50 belonging to "CC1(C)C=Cc2c(ccc3[nH]c4cc(O)c(C=O)cc4c23)O1" and report it.
1.47

Find the recorded log10 IC50 belonging to CC(C)=CCc1c(O)c(C=O)cc2c1[nH]c1cc(O)ccc12 [7-HYDROXYHEPTAPHYLLINE] and report it.
1.61

Find the recorded log10 IC50 belonging to "COC(=O)c1cc(O)c2[nH]c3ccccc3c2c1" and report it.
2.18

---

# Test system: NCI-H187
# Measurement Notes: Cytotoxicity against human NCI-H187 by resazurin microplate assay
# Type: functional, cell-based
Catalogue of compounds with associated IC50

# Compound, IC50
records = [
    ("Cc1cc2c([nH]c3c(O)cccc32)c2c1OC(C)(C)C=C2", "> 200 µM"),
]

Find the recorded IC50 belonging to "C=CC(C)(C)c1c2c(c(OC)c3ccc(=O)oc13)C=CC(C)(C)O2" and report it.
45.4 µM

Find the recorded IC50 belonging to "COc1ccc2c(c1)[nH]c1cc(OC)c(C(=O)O)cc12" and report it.
139 µM

Find the recorded IC50 belonging to "COc1ccc2c(c1)[nH]c1c(O)cc(C=O)cc12" and report it.
10.4 µM

Find the recorded IC50 belonging to "O=Cc1cc2c(cc1O)[nH]c1cc(O)ccc12" and report it.
74.7 µM

Find the recorded IC50 belonging to CC(C)=CCc1c(O)c(C=O)cc2c1[nH]c1cc(O)ccc12 [7-HYDROXYHEPTAPHYLLINE] and report it.
14.6 µM

Find the recorded IC50 belonging to "COC(=O)c1ccc2[nH]c3ccc4c(c3c2c1)C=CC(C)(C)O4" and report it.
> 200 µM

Find the recorded IC50 belonging to "COc1cc(C=O)cc2c1[nH]c1ccccc12" and report it.
11.5 µM

Find the recorded IC50 belonging to "C=CC(C)(C)c1c2c(c(O)c3ccc(=O)oc13)C=CC(C)(C)O2" and report it.
11.8 µM
